assay.name: In vitro cytotoxicity in hypoxic cells (% survival)
Assay type: cell-based, Chinese hamster
condition.parameters: hamster, v-79 cells, 4 hours, 0.05 mM, read-out: In vitro cytoxicity in hypoxic cells (% survival at 4 hours)

>  <molecule>
O=C(OC[C@H]1O[C@H](n2ccnc2[N+](=O)[O-])[C@@H](OC(=O)c2ccccc2)[C@@H]1OC(=O)c1ccccc1)c1ccccc1 [E]

>  <viability at 4 h, 50 µM / %>
76

$$$$
>  <molecule>
O=C(OC[C@H]1O[C@@H](n2ccnc2[N+](=O)[O-])[C@@H](OC(=O)c2ccccc2)[C@@H]1OC(=O)c1ccccc1)c1ccccc1 [F]

>  <viability at 4 h, 50 µM / %>
104

$$$$

* * *

assay.name: Pharmacokinetics, localization in tissue in mice bearing B16 melanoma
Format: in vivo, mouse (C57/BL)
condition.parameters: mouse, tumor/plasma, ip, 1000 mg/kg; 60 min; read-out: Ratio of Tumor/plasma
endpoint.name: Kp at 1 h

>  <smiles.repr>
O=[N+]([O-])c1nccn1[C@@H]1C=C[C@H](O)[C@@H](CO)O1

>  <recorded.result>
0.534

$$$$

* * *

assay.name: Pharmacokinetics, localization in tissue in mice bearing B16 melanoma
Assay type: in vivo, mouse (C57/BL)
condition.parameters: mouse, b16 melanoma tumor, ip, 1000 mg/kg; tumor, 60 min, 1 g/kg intraperitoneal; read-out: (B16 melanoma)

>  <smiles.repr>
O=[N+]([O-])c1nccn1[C@@H]1C=C[C@H](O)[C@@H](CO)O1

>  <unit>
ng/g

>  <concentration at 1 h>
346000

$$$$

* * *

assay.name: Pharmacokinetics, localization in tissue in mice bearing B16 melanoma
Type: in vivo, mouse (C57/BL)
condition.parameters: mouse, brain/plasma, ip, 1000 mg/kg; 60 min; read-out: Ratio of Brain/Plasma
endpoint.name: Kp at 1 h

>  <smiles.repr>
O=[N+]([O-])c1nccn1[C@@H]1C=C[C@H](O)[C@@H](CO)O1

>  <endpoint.name>
Kp at 1 h

>  <recorded.result>
0.18

$$$$

* * *

assay.name: In vitro cytotoxicity in hypoxic cells (% survival)
Assay type: cell-based, Chinese hamster
condition.parameters: hamster, v-79 cells, 4 hours, 1.0 mM, read-out: In vitro cytoxicity in hypoxic cells (% survival at 4 hours)
endpoint.name: viability at 4 h, 1000 µM (%)

>  <smiles.repr>
O=[N+]([O-])c1nccn1[C@@H]1C=C[C@H](O)[C@@H](CO)O1

>  <recorded.result>
0

$$$$

* * *

assay.name: In vitro cytotoxicity in oxic cells (% survival)
Assay type: cell-based, Chinese hamster
condition.parameters: hamster, v-79 cells, oxic, 4 hours, 0.01 mM; read-out: In vitro cytoxicity in oxic cells (% survival at 4 hours)

>  <compound>
CC(=O)OC[C@H]1O[C@H](n2ccnc2[N+](=O)[O-])C=C[C@@H]1OC(C)=O [B]

>  <unit>
%

>  <viability at 4 h, 10 µM>
100

$$$$

* * *

A collection of compounds and their measured viability at 4 h, 100 µM
assay.name: In vitro cytotoxicity in oxic cells (% survival)
Type: cell-based, Chinese hamster
condition.parameters: hamster, v-79 cells, oxic, 4 hours, 0.1 mM; read-out: In vitro cytoxicity in oxic cells (% survival at 4 hours)
endpoint.name: viability at 4 h, 100 µM (%)

>  <smiles.repr>
O=[N+]([O-])c1nccn1[C@@H]1C=C[C@H](O)[C@@H](CO)O1

>  <endpoint.name>
viability at 4 h, 100 µM

>  <recorded.result>
99

$$$$
>  <smiles.repr>
CC(=O)OC[C@H]1O[C@@H](n2ccnc2[N+](=O)[O-])C=C[C@@H]1OC(C)=O

>  <endpoint.name>
viability at 4 h, 100 µM

>  <recorded.result>
101

$$$$
>  <smiles.repr>
CC(=O)OC[C@H]1O[C@H](n2ccnc2[N+](=O)[O-])C=C[C@@H]1OC(C)=O

>  <endpoint.name>
viability at 4 h, 100 µM

>  <recorded.result>
101

$$$$

* * *

assay.name: Pharmacokinetics, localization in tissue in mice bearing B16 melanoma
Format: in vivo, mouse (C57/BL)
condition.parameters: mouse, brain, ip, 1000 mg/kg; 60 min, 1 g/kg intraperitoneal; read-out: Brain

>  <smiles.repr>
O=[N+]([O-])c1nccn1[C@@H]1C=C[C@H](O)[C@@H](CO)O1

>  <concentration at 1 h>
120000 ng/g

$$$$

* * *

assay.name: In vitro cytotoxicity in oxic cells (% survival)
Assay type: cell-based, Chinese hamster
condition.parameters: hamster, v-79 cells, oxic, 2 hours, 0.1 mM; read-out: In vitro cytoxicity in oxic cells (% survival at 2 hours)
In this section, each of the compounds is paired with its reported viability at 2 h, 100 µM.
endpoint.name: viability at 2 h, 100 µM (%)

>  <compound>
O=[N+]([O-])c1nccn1COCCO [M]

>  <endpoint.name>
viability at 2 h, 100 µM

>  <unit>
%

>  <recorded.result>
99.5

$$$$
>  <compound>
O=[N+]([O-])c1nccn1[C@@H]1C=C[C@H](O)[C@@H](CO)O1 [A]

>  <endpoint.name>
viability at 2 h, 100 µM

>  <unit>
%

>  <recorded.result>
99

$$$$
>  <compound>
O=[N+]([O-])c1nccn1C1CCCC1O (stereo not shown) [K]

>  <endpoint.name>
viability at 2 h, 100 µM

>  <unit>
%

>  <recorded.result>
112

$$$$
>  <compound>
CC(=O)OC[C@H]1O[C@@H](n2ccnc2[N+](=O)[O-])C=C[C@@H]1OC(C)=O [C]

>  <endpoint.name>
viability at 2 h, 100 µM

>  <unit>
%

>  <recorded.result>
95

$$$$
>  <compound>
O=[N+]([O-])c1nccn1C1CCCCC1O (stereo not shown) [L, 1-(2-Hydroxycyclohexyl)-2-nitroimidazole]

>  <endpoint.name>
viability at 2 h, 100 µM

>  <unit>
%

>  <recorded.result>
98.2

$$$$
>  <compound>
O=[N+]([O-])c1nccn1C1C[C@H](O)[C@@H](CO)O1 (stereo partly shown) [G]

>  <endpoint.name>
viability at 2 h, 100 µM

>  <unit>
%

>  <recorded.result>
95.3

$$$$
>  <compound>
O=[N+]([O-])c1nccn1C1O[C@H](CO)[C@@H](O)[C@@H]1O (stereo partly drawn) [D, 1(D-Arabinofuranosyl)-2-nitroimidazole]

>  <endpoint.name>
viability at 2 h, 100 µM

>  <unit>
%

>  <recorded.result>
105

$$$$
>  <compound>
O=[N+]([O-])c1nccn1C1CCCO1 (stereo not shown) [I]

>  <endpoint.name>
viability at 2 h, 100 µM

>  <unit>
%

>  <recorded.result>
98.8

$$$$
>  <compound>
CC(=O)OC[C@H]1O[C@H](n2ccnc2[N+](=O)[O-])C=C[C@@H]1OC(C)=O [B]

>  <endpoint.name>
viability at 2 h, 100 µM

>  <unit>
%

>  <recorded.result>
103

$$$$
>  <compound>
O=[N+]([O-])c1nccn1C1CCCCO1 (stereo not shown) [J]

>  <endpoint.name>
viability at 2 h, 100 µM

>  <unit>
%

>  <recorded.result>
106

$$$$

* * *

assay.name: In vitro cytotoxicity in oxic cells (% survival)
Assay type: cell-based, Chinese hamster
condition.parameters: hamster, v-79 cells, oxic, 2 hours, 0.5 mM; read-out: In vitro cytoxicity in oxic cells (% survival at 2 hours)
Entries and their measured viability at 2 h, 500 µM follow.
endpoint.name: viability at 2 h, 500 µM (%)

>  <compound>
O=[N+]([O-])c1nccn1COCCO

>  <recorded.result>
106

$$$$
>  <compound>
CC(=O)OC[C@H]1O[C@@H](n2ccnc2[N+](=O)[O-])C=C[C@@H]1OC(C)=O

>  <recorded.result>
97

$$$$
>  <compound>
O=[N+]([O-])c1nccn1[C@@H]1C=C[C@H](O)[C@@H](CO)O1

>  <recorded.result>
90

$$$$
>  <compound>
O=[N+]([O-])c1nccn1C1O[C@H](CO)[C@@H](O)[C@@H]1O (stereo partly shown)

>  <recorded.result>
104

$$$$
>  <compound>
O=[N+]([O-])c1nccn1C1CCCCC1O (stereo not shown) [L, 1-(2-Hydroxycyclohexyl)-2-nitroimidazole]

>  <recorded.result>
90.3

$$$$
>  <compound>
O=[N+]([O-])c1nccn1C1CCCC1O (stereo not shown)

>  <recorded.result>
110

$$$$
>  <compound>
O=[N+]([O-])c1nccn1C1CCCO1 (stereo not shown)

>  <recorded.result>
101

$$$$
>  <compound>
O=[N+]([O-])c1nccn1C1C[C@H](O)[C@@H](CO)O1 (stereo partly shown)

>  <recorded.result>
88.9

$$$$
>  <compound>
CC(=O)OC[C@H]1O[C@H](n2ccnc2[N+](=O)[O-])C=C[C@@H]1OC(C)=O

>  <recorded.result>
100

$$$$
>  <compound>
O=[N+]([O-])c1nccn1C1CCCCO1 (stereo not shown)

>  <recorded.result>
101

$$$$
